- Target entity: L858R/T790M/C797S EGFR (Homo sapiens, UniProt P00533, C797S/L858R/T790M)
- Construct: expressed in transfected cells; host or cells: H1975 clone #25 (lentiviral over-expression, endogenous EGFR knocked out by sgRNA)
- Sequence (P00533 25-1210 T790M/C797S/L858R): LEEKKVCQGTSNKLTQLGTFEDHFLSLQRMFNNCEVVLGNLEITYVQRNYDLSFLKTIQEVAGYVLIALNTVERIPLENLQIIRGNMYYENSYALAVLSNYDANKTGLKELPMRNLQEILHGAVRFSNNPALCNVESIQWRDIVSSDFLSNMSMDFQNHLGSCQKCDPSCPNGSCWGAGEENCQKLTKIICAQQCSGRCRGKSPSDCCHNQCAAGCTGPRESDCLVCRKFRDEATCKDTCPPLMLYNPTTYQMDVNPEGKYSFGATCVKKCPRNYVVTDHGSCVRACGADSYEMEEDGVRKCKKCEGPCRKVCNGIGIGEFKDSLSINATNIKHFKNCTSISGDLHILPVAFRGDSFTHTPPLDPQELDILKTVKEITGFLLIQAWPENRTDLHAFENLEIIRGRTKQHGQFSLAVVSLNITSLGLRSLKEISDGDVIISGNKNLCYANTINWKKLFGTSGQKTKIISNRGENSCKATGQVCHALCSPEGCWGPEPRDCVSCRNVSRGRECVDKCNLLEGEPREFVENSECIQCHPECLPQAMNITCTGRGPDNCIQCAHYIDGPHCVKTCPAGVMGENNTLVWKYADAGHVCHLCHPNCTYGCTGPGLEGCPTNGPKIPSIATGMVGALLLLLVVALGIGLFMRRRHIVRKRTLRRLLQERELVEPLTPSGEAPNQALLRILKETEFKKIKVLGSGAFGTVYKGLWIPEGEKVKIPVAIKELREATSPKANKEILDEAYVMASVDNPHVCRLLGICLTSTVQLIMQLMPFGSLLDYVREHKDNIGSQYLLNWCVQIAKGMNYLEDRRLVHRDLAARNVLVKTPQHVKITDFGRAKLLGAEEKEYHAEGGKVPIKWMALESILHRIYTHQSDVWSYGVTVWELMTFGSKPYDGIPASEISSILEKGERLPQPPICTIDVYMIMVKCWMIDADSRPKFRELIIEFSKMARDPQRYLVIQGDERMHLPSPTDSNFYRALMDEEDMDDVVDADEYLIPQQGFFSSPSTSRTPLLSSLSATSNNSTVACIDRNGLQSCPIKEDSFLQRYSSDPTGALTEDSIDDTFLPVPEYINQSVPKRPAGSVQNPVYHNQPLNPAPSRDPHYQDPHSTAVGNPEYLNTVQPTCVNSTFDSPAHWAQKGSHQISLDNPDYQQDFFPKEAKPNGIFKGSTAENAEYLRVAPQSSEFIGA
- Assay remarks: EGFR degradation HTRF assay in H1975-clone #25 (LTC) cells
- Assay type: cell-based
- Test parameters: NCI-H1975, H1975 # 25-LTC (L858R/T790M/C797S), 16h treatment, maximum percentage of degradation
Measured Dmax of individual entries
Supply the numeric figure in %, leaving out any unit text.

[[record]]
smiles_entry = "Cc1cc2cc(n1)-c1cnn(C)c1OCCC[C@@H](C)CN1/C(=N/C2=O)Nc2ccc(CN3CCN(C(=O)[C@@H]4CCN(c5cc(F)c([C@H]6CCC(=O)NC6=O)c(F)c5)C4)C[C@H]3CO)cc21"
property_label = "Dmax"
readout_value = 87.1

[[record]]
smiles_entry = "Cc1cc2cc(n1)-c1cnn(C)c1OCCC[C@@H](C)CN1/C(=N/C2=O)Nc2ccc(C(=O)N(C)[C@@H]3CCN(CCc4cc(F)c([C@H]5CCC(=O)NC5=O)c(F)c4)CC3(C)C)cc21"
property_label = "Dmax"
readout_value = 84.2

[[record]]
smiles_entry = "Cc1cc2cc(n1)-c1cnn(C)c1OCCC[C@@H](C)CN1/C(=N/C2=O)Nc2ccc(C(=O)N3CCN(CCCc4cc(F)c([C@H]5CCC(=O)NC5=O)c(F)c4)CC3)cc21"
property_label = "Dmax"
readout_value = 86.8

[[record]]
smiles_entry = "Cc1cc2cc(n1)-c1cnn(C)c1OCCC[C@@H](C)CN1/C(=N/C2=O)Nc2ccc(C(=O)N(C)CCCCc3cc(F)c([C@H]4CCC(=O)NC4=O)c(F)c3)cc21"
property_label = "Dmax"
readout_value = 80.3


Q: Look at this compound and give its reported Dmax. Cc1cc2cc(n1)-c1cnn(C)c1OCCC[C@@H](C)CN1/C(=N/C2=O)Nc2ccc(C3CCN(C(=O)C4CN(c5cc(F)c([C@H]6CCC(=O)NC6=O)c(F)c5)C4)CC3)cc21
Result: 82.2

---

- Target entity: L858R/T790M/C797S EGFR (Homo sapiens, UniProt P00533, C797S/L858R/T790M)
- Construct: expressed in transfected cells; host or cells: H1975 clone #25 (lentiviral over-expression, endogenous EGFR knocked out by sgRNA)
- Assay remarks: EGFR degradation HTRF assay in H1975-clone #25 (LTC) cells
- Type: cell-based
- Test parameters: H1975 # 25-LTC (L858R/T790M/C797S), 16h treatment, HTRF
Measured DC50 of individual entries
Don't forget the unit after the value.

Q: Lab note: need DC50 for Cc1cc2cc(n1)-c1cnn(C)c1OCCC[C@@H](C)CN1/C(=N/C2=O)Nc2ccc(CN3CCC4(CC3)CCN(CC3CCN(c5ccc6c(c5)CN(C5CCC(=O)NC5=O)C6=O)CC3)CC4)cc21 (stereo partly shown) on L858R/T790M/C797S EGFR (Homo sapiens, UniProt P00533, C797S/L858R/T790M), anyone have it?
Result: 2.7 nM

Q: Lab note: need DC50 for Cc1cc2cc(n1)-c1cnn(C)c1OCCC[C@@H](C)CN1/C(=N/C2=O)Nc2ccc(N3CCN(CC4CCN(c5cc(F)c([C@H]6CCC(=O)NC6=O)c(F)c5)CC4)CC3)cc21 on L858R/T790M/C797S EGFR (Homo sapiens, UniProt P00533, C797S/L858R/T790M), anyone have it?
Result: 1.21 nM

Q: Lab note: need DC50 for Cc1cc2cc(n1)-c1cnn(C)c1OCCC[C@@H](C)CN1/C(=N/C2=O)Nc2ccc(CN3CC4CCC3CN4C(=O)[C@@H]3CCN(c4cc(F)c([C@H]5CCC(=O)NC5=O)c(F)c4)C3)cc21 (stereo partly shown) on L858R/T790M/C797S EGFR (Homo sapiens, UniProt P00533, C797S/L858R/T790M), anyone have it?
Result: 1.46 nM

---

- Target entity: L858R/T790M/C797S EGFR (Homo sapiens, UniProt P00533, C797S/L858R/T790M)
- Construct: expressed in transfected cells; host or cells: H1975 clone #25 (lentiviral over-expression, endogenous EGFR knocked out by sgRNA)
- Assay remarks: EGFR degradation HTRF assay in H1975-clone #25 (LTC) cells
- Assay type: cell-based
- Test parameters: H1975 # 25-LTC (L858R/T790M/C797S), 16h treatment, HTRF
Hi! Could you tag entries with DC50 below 0.6 nM as criterion met, and those at or above as criterion not met? Much appreciated.

Observe how each entry below is paired with its result.
[[record]]
molecule = "Cc1cc2cc(n1)-c1cnn(C)c1OCC[C@@H]1C[C@H]1CN1/C(=N/C2=O)Nc2ccc(N3CCN(C4CCN(c5cc(F)c([C@H]6CCC(=O)NC6=O)c(F)c5)CC4)CC3)cc21 [Example 441]"
class = "criterion not met"

[[record]]
molecule = "Cc1cc2cc(n1)-c1cnn(C)c1OCCC[C@@H](C)CN1/C(=N/C2=O)Nc2ccc(N3CCN(CCN(C)c4cc(F)c([C@H]5CCC(=O)NC5=O)c(F)c4)CC3)cc21 [Example 407]"
class = "criterion not met"

[[record]]
molecule = "Cc1cc2cc(n1)-c1cnn(C)c1OCCC[C@@H](C)CN1/C(=N/C2=O)Nc2ccc(C3CCN(CCc4cc(F)c([C@H]5CCC(=O)NC5=O)c(F)c4)CC3)cc21 [Example 330]"
class = "criterion not met"


Now for another entry.
Q: Below 0.6 nM on DC50? Entry Cc1cc2cc(n1)-c1cnn(C)c1OCCC[C@@H](C)CN1/C(=N/C2=O)Nc2ccc(C(=O)N(C)C3CCN(CC4CCN(c5cc(F)c([C@H]6CCC(=O)NC6=O)c(F)c5)CC4)CC3)cc21 [Example 287]
Result: criterion met

---

Measured Dmax of individual entries
- Target entity: L858R/T790M/C797S EGFR (Homo sapiens, UniProt P00533, C797S/L858R/T790M)
- Construct: expressed in transfected cells; host or cells: H1975 clone #25 (lentiviral over-expression, endogenous EGFR knocked out by sgRNA)
- Assay remarks: EGFR degradation HTRF assay in H1975-clone #25 (LTC) cells
- Assay type: cell-based
- Test parameters: NCI-H1975, H1975 # 25-LTC (L858R/T790M/C797S), 16h treatment, maximum percentage of degradation
Supply the numeric figure in %, leaving out any unit text.

[[record]]
compound = "Cc1cc2cc(n1)-c1cnn(C)c1OCCC[C@@H](C)CN1/C(=N/C2=O)Nc2ccc(C(=O)N3CCN(C(=O)[C@@H]4CCN(c5cc(F)c([C@H]6CCC(=O)NC6=O)c(F)c5)C4)CC3)cc21"
property_label = "Dmax"
readout_value = 87.8


Q: Look at this compound and give its reported Dmax. Cc1cc2cc(n1)-c1cnn(C)c1OCCC[C@@H](C)CN1/C(=N/C2=O)Nc2ccc(CN3CC4CCC3CN4C(=O)[C@@H]3CCN(c4cc(F)c([C@H]5CCC(=O)NC5=O)c(F)c4)C3)cc21 (stereo partly drawn)
Result: 83.1

Q: Look at this compound and give its reported Dmax. Cc1cc2cc(n1)-c1cnn(C)c1OCCC[C@@H](C)CN1/C(=N/C2=O)Nc2ccc(C(=O)N(C)C3CCN(CCC4CN(c5cc(F)c([C@H]6CCC(=O)NC6=O)c(F)c5)C4)CC3)cc21
Result: 89.8

Q: Look at this compound and give its reported Dmax. Cc1cc2cc(n1)-c1cnn(C)c1OCCC[C@@H](C)CN1/C(=N/C2=O)Nc2ccc(C(=O)N(C)[C@@H]3CCN(CCc4cc(F)c([C@H]5CCC(=O)NC5=O)c(F)c4)C[C@H]3O)cc21
Result: 92.1

Q: Look at this compound and give its reported Dmax. Cc1cc2cc(n1)-c1cnn(C)c1OCCC[C@@H](C)CN1/C(=N/C2=O)Nc2ccc(CN3C[C@@H]4C[C@H]3CN4C(=O)[C@H]3CN(c4cc(F)c([C@H]5CCC(=O)NC5=O)c(F)c4)CC3(C)C)cc21
Result: 87.1

Q: Look at this compound and give its reported Dmax. Cc1cc2cc(n1)-c1cnn(C)c1OCCC[C@@H](C)CN1/C(=N/C2=O)Nc2ccc(CN3CCN(C(=O)C4CN(c5ccc(F)c6c5n(C)c(=O)n6C5CCC(=O)NC5=O)C4)CC3)cc21 (stereo partly drawn)
Result: 90.6

Q: Look at this compound and give its reported Dmax. Cc1cc2cc(n1)-c1cnn(C)c1OCC[C@H]1C[C@@H]1CN1/C(=N/C2=O)Nc2ccc(N3CCC(N4CCN(c5cc(F)c([C@H]6CCC(=O)NC6=O)c(F)c5)CC4=O)CC3)cc21
Result: 92.7

Q: Look at this compound and give its reported Dmax. Cc1cc2cc(n1)-c1cnn(C)c1OCCC[C@@H](C)CN1/C(=N/C2=O)Nc2ccc(N(C)C3CCN(C(=O)[C@@H]4CCN(c5cc(F)c([C@H]6CCC(=O)NC6=O)c(F)c5)C4)CC3)cc21
Result: 90.6

Q: Look at this compound and give its reported Dmax. Cc1cc2cc(n1)-c1cnn(C)c1OCCC[C@@H](C)CN1/C(=N/C2=O)Nc2ccc(CN3CCN(C(=O)[C@@H]4CCN(c5cc(F)c([C@H]6CCC(=O)NC6=O)c(F)c5)C4)CC34COC4)cc21
Result: 76.5
